The origin of these recorded values is the supplement of paper PMC6757056.

B1: library; a variant is named by its letters at N, in order (parent)
chain: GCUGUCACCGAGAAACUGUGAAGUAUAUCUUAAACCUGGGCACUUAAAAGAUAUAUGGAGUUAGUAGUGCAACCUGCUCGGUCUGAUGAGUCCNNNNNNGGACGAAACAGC

Variants of: B1
testMethodNotes: FACS-Seq fitted mean relative fluorescence mCherry/BFP with ligand (log10 relative fluorescence); HEK293T; ligand: cyclic di-GMP (c-di-GMP-II aptamer); ligand concentration (+) FACS-Seq: 1 mM; higher = higher reporter protein expression
measurementSetup: ligand present: yes
propertyLabel: FACS-Seq fitted mean (log10)

* ACAAUU | -0.2

Looking for the measured FACS-Seq fitted mean (log10) of CUCGAA , can you help?
0.32

Looking for the measured FACS-Seq fitted mean (log10) of CUCUAA , can you help?
-0.0646

Looking for the measured FACS-Seq fitted mean (log10) of GCACAU , can you help?
-0.00874

Looking for the measured FACS-Seq fitted mean (log10) of ACCAAC , can you help?
0.111

Looking for the measured FACS-Seq fitted mean (log10) of CAAUAA , can you help?
-0.398
